Data origin, for the record: patent US12187709B2

What follows is a collection of IC50 values obtained with c-Cbl (Homo sapiens (Human)).
Sequence (P22681 47-435): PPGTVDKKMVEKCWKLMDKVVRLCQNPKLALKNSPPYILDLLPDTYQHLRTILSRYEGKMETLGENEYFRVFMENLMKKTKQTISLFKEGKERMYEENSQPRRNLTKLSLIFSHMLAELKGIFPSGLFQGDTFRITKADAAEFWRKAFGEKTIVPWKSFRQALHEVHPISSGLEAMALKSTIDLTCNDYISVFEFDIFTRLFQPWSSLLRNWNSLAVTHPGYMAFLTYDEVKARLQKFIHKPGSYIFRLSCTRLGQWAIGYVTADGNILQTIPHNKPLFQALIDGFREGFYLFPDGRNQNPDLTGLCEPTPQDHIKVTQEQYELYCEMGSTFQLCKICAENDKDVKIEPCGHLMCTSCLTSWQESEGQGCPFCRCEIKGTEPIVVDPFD

[
  {
    "molecule": "C[C@@H](NC1(C)CCC1)c1cc2c(c(C(F)F)c1)CN(c1cccc([C@H](c3nncn3C)C3COC3)c1)C2=O (single isomer, unassigned)",
    "system under test": "c-Cbl (Homo sapiens (Human))",
    "result": "59 nM"
  },
  {
    "molecule": "Cc1cnnn1[C@H](c1cccc(N2Cc3c(cc(CNC4(C)CCC4)cc3C(F)(F)F)C2=O)c1)C1COC1 (single isomer, unassigned)",
    "system under test": "c-Cbl (Homo sapiens (Human))",
    "result": "20000 nM"
  },
  {
    "molecule": "Cn1cnnc1C1(c2cccc(N3Cc4c(cc(CNC5(C)CCC5)cc4C(F)(F)F)C3=O)c2)CC2(CN(C3COC3)C2)C1",
    "system under test": "c-Cbl (Homo sapiens (Human))",
    "result": "20000 nM"
  },
  {
    "molecule": "CO[C@H]1C[C@@](c2cc(NC3COC3)cc(N3Cc4c(cc(CNC5(C)CCC5)cc4C(F)(F)F)C3=O)c2)(c2nncn2C)C1",
    "system under test": "c-Cbl (Homo sapiens (Human))",
    "result": "290 nM"
  },
  {
    "molecule": "Cl.Cn1cnnc1[C@]1(c2cccc(N3Cc4c(cc(CNC5(C)CCC5)cc4C(F)(F)F)C3=O)c2)C[C@@H](Cl)C1 [Compound 137, hydrochloride]",
    "system under test": "c-Cbl (Homo sapiens (Human))",
    "result": "8.5 nM"
  }
]

Query: Entry CO[C@H]1C[C@](c2cccc(N3Cc4c(cc(CNCC5(CO)CCC5)cc4C(F)(F)F)C3=O)c2)(c2nncn2C)C1 has what IC50?
Response: 74 nM

Query: // repeat for CO[C@H]1C[C@](c2cccc(N3Cc4c(cc(CN[C@H]5[C@@H]6COC[C@@H]65)cc4C(F)(F)F)C3=O)c2)(c2nncn2C)C1 and report
Response: 87 nM

Query: Then what about the molecule Cn1cnnc1[C@H](c1cccc(N2Cc3c(cc(CNC4(C)CCC4)cc3C(F)(F)F)C2=O)c1)C1CC2(COC2)C1 ?
Response: 20000 nM

Query: And the next one, C=C[C@@H](C)Oc1cc(N2Cc3c(cc(CNC4(C)CCC4)cc3C(F)(F)F)C2=O)cc([C@]2(c3nncn3C)C[C@@H](OC)C2)c1 ?
Response: 440 nM

Query: Next molecule up: CO[C@H]1C[C@](c2cccc(N3Cc4c(cc(CNC5C[C@@H]6C[C@H]5CO6)cc4C(F)(F)F)C3=O)c2)(c2nncn2C)C1 (stereo partly drawn)
Response: 85 nM

Query: Continue with COCCC1(NCc2cc3c(c(C(F)(F)F)c2)CN(c2cccc([C@]4(c5nncn5C)C[C@H](OC)C4)c2)C3=O)CCC1
Response: 230 nM

Query: One more molecule: Cn1cnnc1C1(c2cccc(N3Cc4c(cc(CNC5(C)CCC5)cc4C(F)(F)F)C3=O)c2)CC2(COC2)C1
Response: 62 nM

---

Readings of fold-selectivity (Cbl-b over C-cbl) for the listed compounds
Molecular target: Cbl-b (Homo sapiens (Human), UniProt Q13191)
Sequence (Q13191 40-426): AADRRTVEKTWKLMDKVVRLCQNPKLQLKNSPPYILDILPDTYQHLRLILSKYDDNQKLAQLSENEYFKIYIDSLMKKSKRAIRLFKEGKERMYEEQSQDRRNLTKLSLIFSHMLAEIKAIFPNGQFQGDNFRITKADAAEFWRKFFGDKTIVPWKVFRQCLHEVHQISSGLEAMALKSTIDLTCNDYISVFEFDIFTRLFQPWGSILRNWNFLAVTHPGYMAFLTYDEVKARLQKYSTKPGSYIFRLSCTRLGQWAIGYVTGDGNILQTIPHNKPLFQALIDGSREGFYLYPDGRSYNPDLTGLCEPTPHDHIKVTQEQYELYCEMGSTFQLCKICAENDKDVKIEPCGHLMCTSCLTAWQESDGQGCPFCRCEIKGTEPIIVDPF
Experiment: Cbl-b LCK Ub TR-FRET assay (Cbl-b Lck HTRF)
Format: biochemical
Conditions: ratio C-cbl Lck HTRF IC50 / Cbl-b Lck HTRF IC50
Use x as the unit, but write only the number.

[
  {
    "compound": "CCNc1cc([C@]2(c3nncn3C)C[C@@H](C)C2)cc(N2Cc3c(cc(CNC4(C)CCC4)cc3C(F)F)C2=O)n1 [Compound 274]",
    "system under test": "Cbl-b (Homo sapiens (Human), UniProt Q13191)",
    "fold-selectivity (Cbl-b over C-cbl) / x": 0.91
  },
  {
    "compound": "Cn1cnnc1[C@]1(c2cc(OC3CCCC3)cc(N3Cc4c(cc(CNC5(C)CCC5)cc4C(F)(F)F)C3=O)c2)C[C@@H](C)C1 [Compound 195]",
    "system under test": "Cbl-b (Homo sapiens (Human), UniProt Q13191)",
    "fold-selectivity (Cbl-b over C-cbl) / x": 2.4
  }
]

Query: State the recorded fold-selectivity (Cbl-b over C-cbl) for this entry: CO[C@H]1C[C@](c2cccc(N3Cc4c(cc([C@H](N)C(C)(C)C)cc4C(F)(F)F)C3=O)c2)(c2nncn2C)C1 (single isomer, unassigned) [Compound 360]
Response: 6.4

Query: Would you kindly repeat that for CNc1cc(N2Cc3c(cc(CNC4(C)CCC4)cc3C(F)(F)F)C2=O)cc([C@]2(c3nncn3C)C[C@H](OC)C2)c1 [Compound 239] ?
Response: 1.0

Query: # repeat for CS[C@H]1C[C@@](c2cccc(N3Cc4c(cc(CNC5(C)CCC5)cc4C(F)(F)F)C3=O)c2)(c2nncn2C)C1 [Compound 324]
Response: 1.5

Query: For Cn1cnnc1[C@]1(c2cccc(N3Cc4c(cc(CNC5(C)CCC5)cc4C(F)(F)F)C3=O)c2)C[C@@H](OCC#N)C1 [Compound 281] then?
Response: 1.3

Query: Can you check CO[C@H]1C[C@@](c2cc(N[C@@H](C)CC#N)cc(N3Cc4c(cc(CNC5(C)CCC5)cc4C(F)(F)F)C3=O)c2)(c2nncn2C)C1 (single isomer, unassigned) [Compound 233] next?
Response: 5.0

Query: What do you have for Cn1cnnc1C(c1cccc(N2Cc3c(cc(CNC4(C)CCC4)cc3C(F)(F)F)C2=O)c1)[C@H]1C[C@@H](Cl)C1 (single isomer, unassigned) [Compound 354] ?
Response: 8.3

Query: Entry to check: Cn1cnnc1C1(c2cc(NC3CCCC3)nc(N3Cc4c(cc(CNC5(C)CCC5)cc4C(F)(F)F)C3=O)c2)CC2(COC2)C1 [Compound 188]
Response: 11

---

Biological target: Cbl-b (Homo sapiens (Human), UniProt Q13191)
Assay: Cbl-b LCK Ub TR-FRET assay (Cbl-b Lck HTRF)
Format: biochemical
Conditions: Cbl-b LCK Ub TR-FRET
observed property: pIC50
API: returns pIC50 as number; meaning -log10 of concentration in mol/L.

Some molecules with recorded pIC50:
[
  {
    "molecule": "Cn1cnnc1[C@@](O)(c1cccc(N2Cc3c(cc(CNC4(C)CCC4)cc3C(F)(F)F)C2=O)c1)C1COC1 (single isomer, unassigned)",
    "pIC50": 7.21
  },
  {
    "molecule": "Cn1cnnc1[C@@H](c1cccc(N2Cc3c(cc(CNC4(C)CCC4)cc3C(F)(F)F)C2=O)c1)C1CC(OCC(F)F)C1 (single isomer, unassigned) [Compound 261]",
    "pIC50": 5.89
  }
]

Now look at this entry.
Query: Requested read-out: pIC50. Entry: CCOc1cc([C@]2(c3nncn3C)C[C@H](OC)C2)cc(N2Cc3c(cc(CNC4(C)CCC4)cc3C(F)(F)F)C2=O)n1
Response: 8.09

---

// values below are reported fold-selectivity (Cbl-b over C-cbl)
Biological target: Cbl-b (Homo sapiens (Human))
Assay: Cbl-b LCK Ub TR-FRET assay (Cbl-b Lck HTRF)
Assay type: biochemical
Conditions: ratio C-cbl Lck HTRF IC50 / Cbl-b Lck HTRF IC50

The following compounds have reported results that may help.
[
  {
    "compound": "CCOc1cc(N2Cc3c(cc(CNC4(C)CCC4)cc3C(F)(F)F)C2=O)cc([C@]2(c3nncn3C)C[C@@H](OC)C2)c1",
    "system under test": "Cbl-b (Homo sapiens (Human))",
    "observed property": "fold-selectivity (Cbl-b over C-cbl)",
    "result": "2.1x"
  },
  {
    "compound": "Cn1cnnc1[C@]1(c2cccc(N3Cc4c(cc(CNC5(C)CCC5)cc4C(F)F)C3=O)c2)C[C@@H](F)C1",
    "system under test": "Cbl-b (Homo sapiens (Human))",
    "observed property": "fold-selectivity (Cbl-b over C-cbl)",
    "result": "1.7x"
  },
  {
    "compound": "Cn1cnnc1C1(c2cccc(N3Cc4c(cc(CNC5(C)CCC5)cc4C(F)(F)F)C3=O)c2)CC2(CC(=O)C2)C1",
    "system under test": "Cbl-b (Homo sapiens (Human))",
    "observed property": "fold-selectivity (Cbl-b over C-cbl)",
    "result": "2.2x"
  },
  {
    "compound": "Cn1cnnc1[C@]1(c2cccc(N3Cc4c(cc(CNC5(C)CCC5)cc4C(F)(F)F)C3=O)c2)C[C@H](OCC#N)C1",
    "system under test": "Cbl-b (Homo sapiens (Human))",
    "observed property": "fold-selectivity (Cbl-b over C-cbl)",
    "result": "1.6x"
  },
  {
    "compound": "Cn1cnnc1[C@H](c1cccc(N2Cc3c(Cl)cc(CNC4(C)CCC4)cc3C2=O)c1)[C@H]1C[C@H](F)C1 (single isomer, unassigned)",
    "system under test": "Cbl-b (Homo sapiens (Human))",
    "observed property": "fold-selectivity (Cbl-b over C-cbl)",
    "result": "1.3x"
  }
]

Query: Quick one: fold-selectivity (Cbl-b over C-cbl) for CCOC1CC([C@H](c2cccc(N3Cc4c(cc(CNC5(C)CCC5)cc4C(F)(F)F)C3=O)c2)c2nncn2C)C1 (single isomer, unassigned) [Compound 265] ?
Response: 11x

Query: Follow-up item: Cn1cnnc1[C@H](c1cccc(N2Cc3c(Cl)cc(CNC4(C)CCC4)cc3C2=O)c1)[C@H]1C[C@@H](F)C1 (single isomer, unassigned)
Response: 3.5x

Query: Repeat with CO[C@H]1C[C@@](c2cc(OC(C)C)cc(N3Cc4c(cc(CNC5(C)CCC5)cc4C(F)(F)F)C3=O)c2)(c2nncn2C)C1
Response: 2.4x

Query: Another: CO[C@H]1C[C@](c2cc(C3CC3)cc(N3Cc4c(cc(CNC5(C)CCC5)cc4C(F)(F)F)C3=O)c2)(c2nncn2C)C1
Response: 0.99x
